Origin of measurements: the supplement of paper PMC11537057

test system: A549 infected with HSV-1; experiment: cell number in HSV-1-infected wells relative to infected DMSO wells (H2B-RFP signal); higher = more surviving cells (uninfected or antiviral-protected wells give about 200%; low = toxicity); settings: 10 µM; 48 h; MOI: 0.1
Counter-ions that a name gives are not always drawn. Whole data set: some 1,700 compounds, median “cell number in HSV-1-infected wells relative to infected DMSO wells (H2B-RFP signal)” near 100, cut for the highest 2% near 140. This excerpt belongs to a sample that is enriched for the highest values.
Recorded measurements of cell number in HSV-1-infected wells, one per entry
valueKind: cell number in HSV-1-infected wells (%)

>  <molecule>
OCCN1CCN(CCCN2c3ccccc3Sc3ccc(Cl)cc32)CC1

>  <assaySystem>
A549 infected with HSV-1

>  <reported>
86.8

$$$$
>  <molecule>
COc1ccc2cc(CCC(C)=O)ccc2c1

>  <assaySystem>
A549 infected with HSV-1

>  <reported>
97.7

$$$$
>  <molecule>
CCCCS(=O)(=O)N[C@@H](Cc1ccc(OCCCCC2CCNCC2)cc1)C(=O)O [Tirofiban Hydrochloride]

>  <assaySystem>
A549 infected with HSV-1

>  <reported>
128

$$$$
>  <molecule>
COC(=O)N[C@@H](C)CNc1nccc(-c2cn(C(C)C)nc2-c2cc(Cl)cc(NS(C)(=O)=O)c2F)n1

>  <assaySystem>
A549 infected with HSV-1

>  <reported>
124

$$$$
>  <molecule>
CCC[C@@H]1C[C@@H](C(=O)N[C@@H]([C@H]2O[C@H](SC)[C@H](OP(=O)(O)O)[C@@H](O)[C@H]2O)[C@H](C)Cl)N(C)C1 [Clindamycin Phosphate]

>  <assaySystem>
A549 infected with HSV-1

>  <reported>
101

$$$$
>  <molecule>
Cn1ncc(Cl)c1-c1cc(C(=O)N[C@H](CN)Cc2ccc(F)c(F)c2)oc1Cl

>  <assaySystem>
A549 infected with HSV-1

>  <reported>
69.8

$$$$
>  <molecule>
COc1ccccc1OCC(O)COC(N)=O (stereo not drawn)

>  <assaySystem>
A549 infected with HSV-1

>  <reported>
115

$$$$
>  <molecule>
CCOC(CN1CCN(CC(C)C(=O)c2ccccc2)CC1)c1ccccc1 (stereo not drawn) [Eprazinone 2HCl]

>  <assaySystem>
A549 infected with HSV-1

>  <reported>
109

$$$$

###

# maps each entry to its cell number in HSV-1-infected wells
test system: A549 infected with HSV-1; test: cell number in HSV-1-infected wells relative to infected DMSO wells (H2B-RFP signal); higher = more surviving cells (uninfected or antiviral-protected wells give about 200%; low = toxicity); conditions: 10 µM; 48 h; MOI: 0.1
Counter-ions that a name gives are not always drawn. In all, about 1,700 compounds were measured (“cell number in HSV-1-infected wells relative to infected DMSO wells (H2B-RFP signal)”: median about 100, highest 2% from about 140 on). Only a selection was taken, and the highest values are over-represented in it overall.
valueKind: cell number in HSV-1-infected wells (%)

>  <compound>
CC[C@H](C)C(=O)O[C@H]1C[C@H](O)C=C2C=C[C@H](C)[C@H](CC[C@@H](O)C[C@@H](O)CC(=O)O)[C@H]21 [Pravastatin sodium]

>  <valueKind>
cell number in HSV-1-infected wells

>  <unitsText>
%

>  <reported>
95.3

$$$$
>  <compound>
O=c1[nH]c(=O)n([C@H]2C[C@H](O)[C@@H](CO)O2)cc1I

>  <valueKind>
cell number in HSV-1-infected wells

>  <unitsText>
%

>  <reported>
176

$$$$
>  <compound>
COc1ccc(NC(=O)c2ccc(C(=N)N(C)C)cc2)c(C(=O)Nc2ccc(Cl)cn2)c1 [Betrixaban maleate]

>  <valueKind>
cell number in HSV-1-infected wells

>  <unitsText>
%

>  <reported>
130

$$$$
>  <compound>
Nc1c(Br)cc(Br)cc1CN[C@H]1CC[C@H](O)CC1

>  <valueKind>
cell number in HSV-1-infected wells

>  <unitsText>
%

>  <reported>
63.6

$$$$
>  <compound>
O=c1oc2c(O)c(O)cc3c(=O)oc4c(O)c(O)cc1c4c23

>  <valueKind>
cell number in HSV-1-infected wells

>  <unitsText>
%

>  <reported>
106

$$$$
